- test.name: Chronic toxicity of suppositories: indexes of peripheral blood
- Format: in vivo, rats
- applied.conditions: male rats, suppositories rectally, 500 mg/kg, 1 month; control 81.4 ± 1.7
For each entry below, report its Average volume of erythrocytes value.
Answer format: numeric, Mkm^3 implied, no suffix.

Documented Average volume of erythrocytes of Nc1cccc2c(=O)[nH][nH]c(=O)c12.[Na] [Compound 15] : 82.6

Documented Average volume of erythrocytes of O=C([O-])c1ncnc2c(=O)n([C@@H]3O[C@H](CO)[C@@H](O)[C@H]3O)[nH]c(=O)c12.[Na+] [Compound 34] : 84.1

Documented Average volume of erythrocytes of O=c1[nH]n([C@@H]2O[C@H](CO)[C@@H](O)[C@H]2O)c(=O)c2nc(O)cnc12.[Na].[Na] [Compound 23] : 83.5

Documented Average volume of erythrocytes of O=c1[nH][nH]c(=O)c2c(Br)ncnc12.[K] [Compound 37] : 82.3

###

- test.name: Chronic toxicity of suppositories: indexes of peripheral blood
- Format: in vivo, rats
- applied.conditions: male rats, suppositories rectally, 500 mg/kg, 1 month; control 5.6 ± 0.1
assay.readout: Erythrocytes (mln/mm^3)
Answer format: numeric, mln/mm^3 implied, no suffix.

Documented Erythrocytes of O=C([O-])c1ncnc2c(=O)n([C@@H]3O[C@H](CO)[C@@H](O)[C@H]3O)[nH]c(=O)c12.[Na+] : 5.6

Documented Erythrocytes of Nc1cccc2c(=O)[nH][nH]c(=O)c12.[Na] : 5.7

Documented Erythrocytes of O=c1[nH][nH]c(=O)c2c(Br)ncnc12.[K] : 5.7

Documented Erythrocytes of O=c1[nH]n([C@@H]2O[C@H](CO)[C@@H](O)[C@H]2O)c(=O)c2nc(O)cnc12.[Na].[Na] : 5.7

###

For each entry below, report its Eosinophiles value.
- test.name: Chronic toxicity of suppositories: indexes of peripheral blood
- Type: in vivo, rats
- applied.conditions: male rats, suppositories rectally, 50 mg/kg, 1 month; control 4.0 + 0.3
Answer format: numeric, % implied, no suffix.

Documented Eosinophiles of O=c1[nH]n([C@@H]2O[C@H](CO)[C@@H](O)[C@H]2O)c(=O)c2nc(O)cnc12.[Na].[Na] : 3.6

Documented Eosinophiles of Nc1cccc2c(=O)[nH][nH]c(=O)c12.[Na] : 3.2

Documented Eosinophiles of O=c1[nH][nH]c(=O)c2c(Br)ncnc12.[K] : 3.8

Documented Eosinophiles of O=C([O-])c1ncnc2c(=O)n([C@@H]3O[C@H](CO)[C@@H](O)[C@H]3O)[nH]c(=O)c12.[Na+] : 3.5

###

For each entry below, report its i value.
- test.name: Electrochemical activity: polarographic reduction on mercury dripping electrode
- Type: physicochemical
- applied.conditions: pH 7.2; 2.0% sodium chloride background, 37° C., 9·10^−4 M, forward trace; average for the group of compounds
Answer format: numeric, mkA implied, no suffix.

Documented i of COP(=O)(OC)C(C)(C)CC(C)=O [Dimesphosphon, reference compound] : 0.12

Documented i of Nc1cccc2c(=O)[nH][nH]c(=O)c12.[Na] : 0.30

Documented i of O=c1[nH][nH]c(=O)c2nccnc12.[Li] : 0.33

###

For each entry below, report its Reticulocytes value.
- test.name: Chronic toxicity of suppositories: indexes of peripheral blood
- Format: in vivo, rats
- applied.conditions: male rats, suppositories rectally, 500 mg/kg, 2 months; control 2.9 ± 0.2
Answer format: numeric, % implied, no suffix.

Documented Reticulocytes of O=c1[nH][nH]c(=O)c2c(Br)ncnc12.[K] : 3.4

Documented Reticulocytes of Nc1cccc2c(=O)[nH][nH]c(=O)c12.[Na] : 3.3

Documented Reticulocytes of O=C([O-])c1ncnc2c(=O)n([C@@H]3O[C@H](CO)[C@@H](O)[C@H]3O)[nH]c(=O)c12.[Na+] : 3.5

Documented Reticulocytes of O=c1[nH]n([C@@H]2O[C@H](CO)[C@@H](O)[C@H]2O)c(=O)c2nc(O)cnc12.[Na].[Na] : 3.4
